# SYSTEM: UniProtKB Q99572
# ASSAY_COMMENT: Screen Quest Fluo-8 No Wash Calcium Assay (Bz-ATP evoked Ca2+ influx, FLIPR)
# Type: cell-based
# Design: hP2X7 (IC50; nM); other: hP2X7; HEK-293 cells stably transfected with P2X7 receptor, Bz-ATP at EC80, Fluo-8 NW; potency
# DETAILS: hP2X7; HEK-293 cells stably transfected with P2X7 receptor, Bz-ATP at EC80, Fluo-8 NW; potency ranges A-D
# Procedure: Extracellular binding of Bz-ATP to P2X7 receptor opens the channel and allows Ca2+ influx into the cells. […] Its fluorescence increases upon binding to calcium. HEK-293 cells stably transfected with P2X7 receptor were seeded overnight in growth medium at 10,000 to 20,000 cell/well in 384-well plate. […] Then 10 μL/w of tests compounds and reference antagonist A438079 at 3×-concentration were injected with the […] and the kinetic response over a period of five minutes was monitored. […]
ENDPOINT_NAME: IC50

COMPOUND | IC50
O=c1onc(CCc2c(F)cccc2Cl)n1Cc1c(F)cccc1Cl [Example 144] | 200 to 1000 nM

Q: Recall the recorded IC50 for O=c1onc(Cc2c(F)cccc2Cl)n1Cc1cccc(F)c1 [Example 26] with UniProtKB Q99572 and state it.
Result: 200 to 1000 nM

Q: Recall the recorded IC50 for Cc1nc(C(F)(F)F)ccc1Cn1c(Cc2c(F)cccc2Cl)noc1=O [Example 64] with UniProtKB Q99572 and state it.
Result: 1000 to 10000 nM

Q: Recall the recorded IC50 for Cc1ncsc1Cn1c(Cc2ccc(F)cc2)noc1=O [Example 8] with UniProtKB Q99572 and state it.
Result: 1000 to 10000 nM

Q: Recall the recorded IC50 for O=c1onc(Cc2c(F)cccc2Cl)n1CC1CCCC1 [Example 85] with UniProtKB Q99572 and state it.
Result: < 200 nM

---

# SYSTEM: P2X7 receptor (Mus musculus, UniProt Q9Z1M0)
# Construct: mP2X7 (IC50; nM); other: mP2X7; HEK-293 cells stably transfected with P2X7 receptor, Bz-ATP at EC80, Fluo-8 NW; potency
# Sequence (Q9Z1M0 whole entry): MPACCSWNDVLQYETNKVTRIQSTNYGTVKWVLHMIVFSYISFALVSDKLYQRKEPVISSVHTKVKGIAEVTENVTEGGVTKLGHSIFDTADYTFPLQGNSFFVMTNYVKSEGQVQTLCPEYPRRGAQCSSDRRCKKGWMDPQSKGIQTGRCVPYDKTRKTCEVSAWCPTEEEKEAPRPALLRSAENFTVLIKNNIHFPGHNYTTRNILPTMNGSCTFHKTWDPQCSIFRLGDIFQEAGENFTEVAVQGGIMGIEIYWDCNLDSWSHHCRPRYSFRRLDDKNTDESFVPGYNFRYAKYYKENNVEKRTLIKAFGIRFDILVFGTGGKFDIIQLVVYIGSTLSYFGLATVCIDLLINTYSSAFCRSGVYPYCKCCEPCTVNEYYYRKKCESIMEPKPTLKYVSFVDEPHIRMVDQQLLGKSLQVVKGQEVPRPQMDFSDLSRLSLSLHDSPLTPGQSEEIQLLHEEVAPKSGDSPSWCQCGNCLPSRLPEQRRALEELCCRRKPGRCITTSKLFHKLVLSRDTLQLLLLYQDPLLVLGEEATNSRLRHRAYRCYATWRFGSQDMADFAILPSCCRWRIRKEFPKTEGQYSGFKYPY
# ASSAY_COMMENT: Screen Quest Fluo-8 No Wash Calcium Assay (Bz-ATP evoked Ca2+ influx, FLIPR)
# Type: cell-based
# DETAILS: mP2X7; HEK-293 cells stably transfected with P2X7 receptor, Bz-ATP at EC80, Fluo-8 NW; potency ranges A-D
ENDPOINT_NAME: IC50

Consider the worked cases shown below.
MOLECULE | ASSAY_VALUE
O=c1onc(Cc2c(F)cccc2Cl)n1CC1COCCO1 (centres unmarked) | > 10000 nM
O=c1onc(Cc2cccc(C(F)(F)F)c2Cl)n1Cc1c(F)cccc1Cl | > 10000 nM
O=c1onc(Cc2ccc(F)cc2)n1CC1CCCCC1 | 200 to 1000 nM
CC(c1ccccc1)n1c(Cc2c(F)cccc2Cl)noc1=O (centres unmarked) | 1000 to 10000 nM

Let's switch to this molecule now.
Q: What value of IC50 has been reported for the following molecule? O=c1onc(Cc2ccccc2Cl)n1Cc1c(F)cccc1Cl
Result: 1000 to 10000 nM

---

# SYSTEM: P2X7 receptor (Homo sapiens, UniProt Q99572)
# Sequence (Q99572 whole entry): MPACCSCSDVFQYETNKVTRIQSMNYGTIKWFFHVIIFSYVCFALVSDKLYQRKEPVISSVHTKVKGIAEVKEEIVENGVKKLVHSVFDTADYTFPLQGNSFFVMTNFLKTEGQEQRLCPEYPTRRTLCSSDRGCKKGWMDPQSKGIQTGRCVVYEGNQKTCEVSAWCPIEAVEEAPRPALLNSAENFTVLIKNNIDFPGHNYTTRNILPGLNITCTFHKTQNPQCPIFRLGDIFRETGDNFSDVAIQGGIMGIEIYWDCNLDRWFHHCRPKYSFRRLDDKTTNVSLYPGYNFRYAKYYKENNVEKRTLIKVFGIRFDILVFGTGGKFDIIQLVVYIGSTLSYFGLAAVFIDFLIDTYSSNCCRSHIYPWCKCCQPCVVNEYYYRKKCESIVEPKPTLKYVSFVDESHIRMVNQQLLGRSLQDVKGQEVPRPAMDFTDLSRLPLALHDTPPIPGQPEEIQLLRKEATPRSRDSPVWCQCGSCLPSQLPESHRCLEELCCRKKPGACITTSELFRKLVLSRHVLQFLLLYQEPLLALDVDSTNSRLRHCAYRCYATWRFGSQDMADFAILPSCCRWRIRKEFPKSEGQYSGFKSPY
# ASSAY_COMMENT: Screen Quest Fluo-8 No Wash Calcium Assay (Bz-ATP evoked Ca2+ influx, FLIPR)
# Format: cell-based
# Set-up: hP2X7 (IC50; nM); other: hP2X7; HEK-293 cells stably transfected with P2X7 receptor, Bz-ATP at EC80, Fluo-8 NW; potency
# DETAILS: hP2X7; HEK-293 cells stably transfected with P2X7 receptor, Bz-ATP at EC80, Fluo-8 NW; potency ranges A-D
ENDPOINT_NAME: IC50

Q: What value of IC50 has been reported for the following compound? O=c1onc(Cc2ccc(F)cc2)n1CC1CCCCC1
Result: 1000 to 10000 nM

Q: What value of IC50 has been reported for the following compound? O=c1onc(Cc2ccccc2F)n1CC1CCC(F)(F)CC1
Result: 200 to 1000 nM

Q: What value of IC50 has been reported for the following compound? CC(c1ccccc1)n1c(Cc2c(F)cccc2Cl)noc1=O (stereo not drawn)
Result: 1000 to 10000 nM

Q: What value of IC50 has been reported for the following compound? O=c1onc(Cc2c(F)cccc2Cl)n1CC1CC2CCC1C2 (stereo not drawn)
Result: < 200 nM

Q: What value of IC50 has been reported for the following compound? O=c1onc(Cc2c(F)cccc2Cl)n1CCN1CCCCC1
Result: 200 to 1000 nM

Q: What value of IC50 has been reported for the following compound? CC(c1ccccc1)n1c(Cc2ccc(F)cc2)noc1=O (stereo not drawn)
Result: 200 to 1000 nM

Q: What value of IC50 has been reported for the following compound? O=c1onc(CC2CCC(F)(F)CC2)n1CC1CCCCC1
Result: 1000 to 10000 nM

Q: What value of IC50 has been reported for the following compound? Cc1ncsc1Cn1c(CC2CCC(F)(F)CC2)noc1=O
Result: 200 to 1000 nM

Q: What value of IC50 has been reported for the following compound? O=c1onc(Cc2c(F)cccc2Cl)n1CC1CCOCC1
Result: 1000 to 10000 nM

Q: What value of IC50 has been reported for the following compound? Cc1cc(F)ccc1Cn1c(CC2CCC(F)(F)CC2)noc1=O
Result: 1000 to 10000 nM

Q: What value of IC50 has been reported for the following compound? Cc1noc(C)c1Cc1noc(=O)n1CC1CCCCC1
Result: 200 to 1000 nM
